System: HeLa cells
Assay: Cytosolic entry efficiency of NF-labelled peptides by flow cytometry
Assay type: cell-based
Settings: variant of CPP1-4
Description: All of the peptides were labeled with naphthofluorescein (NF) at the Gln side chain through a long, flexible linker, miniPEG-Lys. HeLa cells were treated with 5 μM peptide for 2 h in the presence of 10% FBS and the cytosolic entry of the peptides was quantitated by flow cytometry analysis. To determine cellular uptake efficiency of the CPPs disclosed herein, HeLa cells were cultured in 12-well plates (1.5×10^5 cells per well) overnight. […]
[ ]: non-standard residue; d: D form. The star is where a group is joined. Decanoyl = CCCCCCCCCC(=O)*; Dap = NC[C@H](N)C(=O)O
reportedMetric: CPP activity compared with CPP1-4 (in words)

cyclo(Dap^DecaRRRAQ) (cyclo([Dap](Decanoyl)RRRAQ); SMILES CCCCCCCCCC(=O)NC[C@@H]1NC(=O)[C@H](CCC(N)=O)NC(=O)[C@H](C)NC(=O)[C@H](CCCNC(=N)N)NC(=O)[C@H](CCCNC(=N)N)NC(=O)[C@H](CCCNC(=N)N)NC1=O) [CPP1-13] :: reduced the CPP activity
cyclo(Dap^DecaARRRQ) (cyclo([Dap](Decanoyl)ARRRQ); SMILES CCCCCCCCCC(=O)NC[C@@H]1NC(=O)[C@H](CCC(N)=O)NC(=O)[C@H](CCCNC(=N)N)NC(=O)[C@H](CCCNC(=N)N)NC(=O)[C@H](CCCNC(=N)N)NC(=O)[C@H](C)NC1=O) [CPP1-12] :: reduced the CPP activity

---

test system: HeLa cells; assay: Cytosolic entry efficiency of NF-labelled peptides by flow cytometry; format: cell-based; conditions: Table 4, NF-labelled peptide, 1% FBS, relative to CPP12 (100%)
[ ]: non-standard residue; d: D form. The star is where a group is joined. Decanoyl = CCCCCCCCCC(=O)*; Orn = NCCC[C@H](N)C(=O)O; Dap = NC[C@H](N)C(=O)O
Provide the reported Cellular Entry Efficiency In 1% FBS of each item.
Express the result in % but write the number alone.

Which measured Cellular Entry Efficiency In 1% FBS value corresponds to cyclo(Dap^DecaRRRQ) (cyclo([Dap](Decanoyl)RRRQ); SMILES CCCCCCCCCC(=O)NC[C@@H]1NC(=O)[C@H](CCC(N)=O)NC(=O)[C@H](CCCNC(=N)N)NC(=O)[C@H](CCCNC(=N)N)NC(=O)[C@H](CCCNC(=N)N)NC1=O) [CPP1-16] ?
25

Which measured Cellular Entry Efficiency In 1% FBS value corresponds to cyclo(Dap^DecaRRRAQ) (cyclo([Dap](Decanoyl)RRRAQ); SMILES CCCCCCCCCC(=O)NC[C@@H]1NC(=O)[C@H](CCC(N)=O)NC(=O)[C@H](C)NC(=O)[C@H](CCCNC(=N)N)NC(=O)[C@H](CCCNC(=N)N)NC(=O)[C@H](CCCNC(=N)N)NC1=O) [CPP1-13] ?
33

Which measured Cellular Entry Efficiency In 1% FBS value corresponds to cyclo(Orn^DecaRRRRQ) (cyclo([Orn](Decanoyl)RRRRQ); SMILES CCCCCCCCCC(=O)NCCC[C@@H]1NC(=O)[C@H](CCC(N)=O)NC(=O)[C@H](CCCNC(=N)N)NC(=O)[C@H](CCCNC(=N)N)NC(=O)[C@H](CCCNC(=N)N)NC(=O)[C@H](CCCNC(=N)N)NC1=O) [CPP1-17] ?
58
